assayText: NCI Yeast Anticancer Drug Screen. Data for the mlh1 rad18 strain (AID 175)
measurementContext: S. cerevisiae mlh1 rad18 strain growth inhibition; at 50.0 µM; active compounds read high
The panel holds about 79,000 compounds, 15% with a hit somewhere; the sample as a whole holds those more often.
quantityKind: growth inhibition (%)
Give bare numbers, in %.

compound	unit	numericResult
CSC1=N/C(=C\c2ccc(C)cc2)C(=O)N1	%	-10.5
O=C1CN2C(c3ccccc3)=NN(c3ccc([N+](=O)[O-])cc3)C2(c2ccccc2)c2cc(Cl)ccc2N1CC1CC1 (configuration not stated)	%	23.4
Cn1ccc2c([N+](=O)[O-])cccc2c1=O	%	4.35

Record growth inhibition per entry; entries follow.
1. O=[N+]([O-])c1ccc(NC(=S)Nc2ccc([N+](=O)[O-])cc2)cc1
2. CCOCCOC(=O)/C=C/c1ccccc1

[2.75, -3.15]

Can you give me growth inhibition for all of these, one by one?
1. COc1ccc(C(=O)O)cc1
2. Cc1cccc(C(=O)N(C)C)c1
3. C#CCN(C)Cc1cc(OC)c(OC)c(OC)c1
4. Nc1cc(Cl)c2c(c1)C(=O)c1ccccc1-2
5. CC(=O)N(c1ccccc1)c1cc(Cl)cc[n+]1[O-]
6. O=C1CC2CCCCC2CC1c1ccccc1 (configuration not stated)

-4.25
3.75
14.4
-5.4
-2.05
-12.2

Given Cc1ccc(S(=O)(=O)N/N=C/c2ccsc2)cc1 , state its recorded growth inhibition.
33

====

Provide the recorded growth inhibition for the entries that follow.
assayText: NCI Yeast Anticancer Drug Screen. Data for the rad50 strain (AID 155);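 also: 0% = growth of vehicle-only cultures of the same strain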
measurementContext: S. cerevisiae rad50 strain growth inhibition; at 50.0 µM; active compounds read high
Experimental: Growth inhibition of yeast strains with defined genetic alterations is measured as a screen for potential anti-cancer activity. Selected strains with alterations in DNA damage repair or cell cycle control were exposed to compounds and growth inhibition was measured relative to vehicle treated controls. The strain used in this assay is rad50
The panel holds about 79,000 compounds, 15% with a hit somewhere; the sample as a whole holds those more often.
Answers are plain numbers, in %.

Worked examples, 3 compounds total:
compound	unit	growth inhibition
Nc1nc2c(nc(OCc3ccccc3)n2C2OC(CO)C(O)C2O)c(=O)[nH]1 (configuration not stated)	%	23.5
O=[N+]([O-])c1cccc(S(=O)(=O)NC2c3ccccc3Oc3ccccc32)c1	%	22
O=C(OCc1ccccc1)c1ccc(NCc2cc(O)ccc2O)cc1	%	88.7

Okay, here is my list. What is growth inhibition for each of these?
1. CCCC(=O)OCC1OC(n2cc(F)c(=O)[nH]c2=O)CC1O (configuration not stated)
2. CC1=Nc2c(C)noc2CC(c2ccccc2O)C1 (configuration not stated)
3. CN(C)C(=O)C(NCCO)c1ccccc1 (configuration not stated)

[14.2, -1.5, -12.6]

Count: 6. Required value per item: growth inhibition.
1. CCCC(=O)c1cc(-c2cc(C(=O)CCC)nc(N)n2)nc(N)n1
2. COc1cc(CNc2cnc3cc(N)ccc3n2)cc(OC)c1OC
3. CC1=CCC2N=C(c3ccccc3)CC2(C)C1=O (configuration not stated)
4. CC/C=C(\CCC)C(C#N)(CC)C(=O)OCC (configuration not stated)
5. O=C(CCC(=O)Nc1cccc([N+](=O)[O-])c1)CC(=O)c1ccc(Cl)cc1
6. O=C(Nc1nncs1)c1cccs1

1: 3.65; 2: -32.5; 3: 27.4; 4: 9.1; 5: -26.6; 6: -13.8
